- testedTarget: T1, CD27 expressed on the cell surface of HT1080_CD27 cells (human, UniProt P26842 20-260); further: test concentration or dose not given here
- T1 sequence (looked up): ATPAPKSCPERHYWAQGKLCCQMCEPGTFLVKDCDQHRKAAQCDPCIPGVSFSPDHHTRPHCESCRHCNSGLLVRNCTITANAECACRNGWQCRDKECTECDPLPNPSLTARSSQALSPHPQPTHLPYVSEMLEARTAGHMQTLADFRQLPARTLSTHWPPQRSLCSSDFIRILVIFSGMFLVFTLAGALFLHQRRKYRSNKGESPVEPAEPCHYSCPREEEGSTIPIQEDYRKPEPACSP
- measurementProtocol: cell-based or functional assay
experimentalEndpoint: Functional assay IL-8 (abs. corr.)
Give bare numbers, in abs. corr..

Take a look at these entries with their results.
[
  {
    "binder": "P018.S.10.A.E02 (antibody, V domains shown, V regions on human Ig constant parts; also called AB27_176) VH: QEQLEESGGDLVKPEGSLTLTCTASGFSFSSSFYMCWVRQAPGKGLEWVACIYAEDSDYTYYASWAKGRFTISKTSSTTVTLQMTSLTAADTATYFCAREILYPTNTDSFDLWGPGTLVTVSS VL: AFELTQTPSSVEAAVGGTVTIKCQASESFSSRLAWYQQKPGQPPKLLIYRASTLASGVPSRFKGSGSGTDFTLTISDLESADAAAYYCQAYVGISSGGYAFGGGTEVVVG",
    "endpointUnit": "abs. corr.",
    "resultNumber": 0.23
  },
  {
    "binder": "P018.S.08.A.F01 (antibody, V domains shown, V regions on human Ig constant parts; also called AB27_140) VH: QSVEESGGRLVTPGTPLTLTCTVSGSDISGYALGWVRQAPGKGLEYIGVIAADGNAYYASWAKGRFTISRTSTTVDLKMTSLTTEDTATYFCARGYSSGWGTYGYFDLWGQGTLVTVSS VL: DIVMTQTPASVSAAVGGTVTIKCQASEDIYSYLAWYQQKPGQPPKLLIYRASTLESGVPSRFKGSGSGTQFTLTISDLESADAATYYCQSYYYSHSTTYSNVFGGGTEVVVK",
    "endpointUnit": "abs. corr.",
    "resultNumber": 0.211
  },
  {
    "binder": "P018.S.03.A.D05 (antibody, V domains shown, V regions on human Ig constant parts; also called AB27_50) VH: QSLEESGGRLVTPGTPLTLTCTASGFSLSSYYITWVRQAPGEGLEWIGTISTAGNTYFASWANGRFTISRTSTTVDLKMTSPTTEDTATYFCARDGAGDSNYYRNLWGQGTLVTVSS VL: DIVLTQTPASVEAAVGGTVTIKCQASQSIDRFLAWYQQKPGQPPKLLIYDASDLASGVPSRFSGSGYGTEFTLTISGVQSEDAATYYCQQGYYISDIHNVFGGGTEVVVK",
    "endpointUnit": "abs. corr.",
    "resultNumber": 0.5
  },
  {
    "binder": "P018.S.05.A.B06 (antibody, V domains shown, V regions on human Ig constant parts; also called AB27_84) VH: QSVEESGGRLVTPGTPLTLTCTVSGFSLNTYVMSWVRQAPGKGLEWIGYIDYGGAPYYASWAKGRFTISKTSTTVELKITSPTIEDTATYFCARGGYGGYVLVTVLWGPGTLVTVSS VL: DVVMTQTPASVSEPVGGTVTIKCQASQNIYSSLAWYQQKPGQPPKLLIYQASTLASEVPSRFKGSGSGTEFTLTINDLESADAATYYCQTYYGGSTYGNGFGGGTEVVVE",
    "endpointUnit": "abs. corr.",
    "resultNumber": 0.22
  }
]

# next binder below
(Q) Can you share its Functional assay IL-8? I mean this binder: P018.S.10.A.B03 (antibody, V domains shown, V regions on human Ig constant parts; also called AB27_168) VH: QSLEESGGRLVTPGTPLTLTCTASGFSLSSYDMGWVRQAPGKGLEWIGIISSSGSTYYASWAKGRFTISKTSSTTVDLKMTSLTTEDTATYFCARTSLDGNLWGQGTLVTVSS VL: AFEMTQTPSSVSEPVGGTVTIKCQASQSIYNYLSWYQQKPGQPPKLLIYDASALASGVPSRFKGSGSGTDFTLTISDLESADAATYYCQQDYSVSDVDNSFGGGTEVVVK
(A) -0.032
